Assay: chemical genetic growth profiling, strain panel (AID 1159580);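 also: tested at 20 µM; growth read once vehicle control cultures reached saturation at 30 °C; 1 = growth at the plate median or of vehicle wells; lower values mean less growth of the strain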
Details: S. cerevisiae deletion strains, growth OD, locus YDR363W, strain ESC2, hits give low values
Out of some 5,500 compounds screened, about 2,000 (36%) were called active. Another 18% or so got no clear call; they are omitted. Some of the results follow.
Please provide measured normalized growth for the entries that follow.
One number for each entry.

Solved entries:
INSERT INTO results (compound, readout_name, measured_result) VALUES
  ('COc1cc2nc(N3CC=[N+](C(=O)c4ccco4)CC3)nc(N)c2cc1OC', 'normalized growth', 1.01),
  ('Cc1ccccc1/C=C/C1=NCCN1', 'normalized growth', 0.999),
  ('NC1(C(=O)O)CC1', 'normalized growth', 0.986),
  ('N[C@H](C(=O)O)[C@H](O)C(=O)O', 'normalized growth', 0.987),
  ('NC1(C(=O)O)CCCCC1', 'normalized growth', 0.98);

For each of the items listed, what is its normalized growth?
1. CCCc1c(-c2ccc(O)cc2)nn(-c2ccc(O)cc2)c1-c1ccc(O)cc1
2. Nc1ccc(CCN2CCN(c3cccc(C(F)(F)F)c3)CC2)cc1
3. Cc1nc(-c2ccc(-c3ccc(C(=O)N4CCc5cc6c(cc54)C4(CCN(C)CC4)CO6)cc3)c(C)c2)no1
4. COc1cc2nc(N3CCN(C(=O)OCc4ccccc4)C(C(=O)NC(C)(C)C)C3)nc(N)c2cc1OC (centres undefined)

# output
1: 0.994; 2: 0.894; 3: 0.991; 4: 0.967
